# study.target: UniProt:Q92731
# experiment.summary: Displacement of fluorescein-labeled estradiol from human recombinant ERbeta at 5 uM by fluorescence polarization assay
attribute.measured: Activity (%)

Here's what some known entries look like.
- compound.structure.string: "CCC/C=C(\\CCC)[C@@H](NC(=O)c1ccc(-c2ccccc2)cc1)c1ccc(C(=O)OC)cc1"
  study.target: "UniProt:Q92731"
  observed.result: 4
- compound.structure.string: "CCCC[C@@H]1C[C@H]1[C@@H](NC(=O)c1cccnc1)c1ccc(-c2ccccc2)cc1"
  study.target: "UniProt:Q92731"
  observed.result: 10

(1) CCC/C=C(\CCC)[C@@H](NC(=O)c1ccc(C(F)(F)F)cc1)c1ccccc1
(2) C=C(CCCC)[C@@H](NC(=O)c1cccs1)c1ccccc1
Incoming: Pick one: 1 or 2 . Which has the bigger Activity number? Record your answer as the label of the chosen record.
Outgoing: 1

(1) CCCC[C@@H]1C[C@H]1[C@@H](NC(=O)c1ccco1)c1ccc(-c2ccccc2)cc1
(2) CCCC[C@@H]1C[C@H]1[C@@H](NC(=O)c1ccccc1)c1ccc(C(=O)OC)cc1
(3) CCC/C=C(\CCC)[C@@H](NS(=O)(=O)c1ccc(C(Cl)(Cl)Cl)cc1)c1ccccc1
(4) CCC[C@@H]1C[C@@]1(CCC)[C@@H](NC(=O)Cc1ccccc1)c1ccc(-c2ccccc2)cc1
(5) CCCC[C@@H]1C[C@H]1[C@@H](NS(=O)(=O)c1cccc2cccnc12)c1ccc(-c2ccccc2)cc1
Incoming: Parameters: sort_field (Activity), sort_dir (desc). List each label, following the requested order.
Outgoing: 3, 5, 1, 2, 4

###

# study.target: UniProt P03372
# Sequence (whole entry): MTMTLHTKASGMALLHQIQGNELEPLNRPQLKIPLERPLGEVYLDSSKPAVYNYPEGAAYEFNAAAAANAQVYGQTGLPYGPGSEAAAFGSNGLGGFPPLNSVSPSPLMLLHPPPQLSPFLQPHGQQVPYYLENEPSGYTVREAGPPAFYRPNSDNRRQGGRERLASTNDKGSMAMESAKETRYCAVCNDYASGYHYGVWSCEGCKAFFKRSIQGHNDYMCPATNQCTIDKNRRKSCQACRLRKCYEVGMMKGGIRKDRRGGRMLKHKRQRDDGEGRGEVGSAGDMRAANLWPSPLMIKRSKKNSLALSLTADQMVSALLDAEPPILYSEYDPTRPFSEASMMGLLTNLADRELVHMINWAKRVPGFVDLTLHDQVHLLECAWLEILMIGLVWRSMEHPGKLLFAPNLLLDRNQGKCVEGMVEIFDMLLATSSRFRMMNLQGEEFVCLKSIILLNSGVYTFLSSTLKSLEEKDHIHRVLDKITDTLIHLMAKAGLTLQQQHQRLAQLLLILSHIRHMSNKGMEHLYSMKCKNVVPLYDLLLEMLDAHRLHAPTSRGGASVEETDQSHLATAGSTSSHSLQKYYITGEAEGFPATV
# experiment.summary: Displacement of fluorescein-labeled estradiol from human recombinant ERalpha at 0.2 uM by fluorescence polarization assay
attribute.measured: Activity (%)

Some compounds with recorded Activity:
- compound: "CCC/C=C(\\CCC)[C@@H](NC(=O)c1ccccc1)c1ccccc1"
  Activity [%]: 51
- compound: "CCCC[C@@H]1C[C@H]1[C@@H](NS(=O)(=O)c1cccc2cccnc12)c1ccc(-c2ccccc2)cc1"
  Activity [%]: 52
- compound: "CCC/C=C(\\CCC)[C@@H](NC(=O)CCc1ccccc1)c1ccc(C(F)(F)F)cc1"
  Activity [%]: 56
- compound: "CCCC[C@@H]1C[C@H]1[C@@H](NC(=O)c1ccccc1)c1ccc(-c2ccccc2)cc1"
  Activity [%]: 72
- compound: "CCCC[C@@H]1C[C@H]1[C@@H](NC(=O)c1ccccc1)c1ccc(C(=O)OC)cc1"
  Activity [%]: 54

(a) CCCC[C@@H]1C[C@H]1[C@@H](NC(=O)c1ccccc1)c1ccc(C(F)(F)F)cc1
(b) CCC/C=C(\CCC)[C@@H](NC(=O)c1ccc(C(F)(F)F)cc1)c1ccccc1
(c) C=C(CCCC)[C@@H](NC(=O)c1ccco1)c1ccccc1
(d) C=C(CCCC)[C@@H](NC(=O)C(C)(C)C)c1ccccc1
(e) CCCC[C@@H]1C[C@H]1[C@@H](NC(=O)c1ccco1)c1ccc(C(F)(F)F)cc1
Incoming: // smallest Activity at index 0, largest at the end Returns: the labels listed in the requested order.
Outgoing: c, d, e, a, b
(c: -111%, d: -67%, e: 6%, a: 32%, b: 47%)

###

# study.target: Estrogen receptor (Homo sapiens) (UniProt P03372)
# experiment.summary: Displacement of fluorescein-labeled estradiol from human recombinant ERalpha at 1 uM by fluorescence polarization assay
attribute.measured: Activity (%)

(P) CCCC[C@@H]1C[C@H]1[C@@H](NC(=O)c1ccc(-c2ccccc2)cc1)c1ccc(-c2ccccc2)cc1
(Q) C=C(CCCC)[C@@H](NC(=O)c1ccc(C(=O)OC)cc1)c1ccccc1
(R) CCC/C=C(\CCC)[C@@H](NC(=O)c1cccs1)c1ccc(C(=O)OC)cc1
Incoming: Rank by Activity (largest to smallest). Lab note: record answer as labels in requested order.
Outgoing: R, P, Q

###

# study.target: Estrogen receptor (Homo sapiens) (UniProt P03372)
# experiment.summary: Displacement of fluorescein-labeled estradiol from human recombinant ERalpha at 1 uM by fluorescence polarization assay
attribute.measured: Activity (%)

- compound: "CCC/C=C(\\CCC)[C@@H](NS(=O)(=O)c1ccc(C(F)(F)F)cc1)c1ccc(C(=O)OC)cc1"
  value.units: "%"
  observed.result: 86

(A) CCC[C@@H]1C[C@@]1(CCC)[C@@H](NC(=O)c1ccco1)c1ccc(C(Cl)(Cl)Cl)cc1
(B) CCCC[C@@H]1C[C@H]1C(NC(=O)c1ccco1)c1ccc(C(=O)OC)cc1 (single isomer, unassigned)
Incoming: // pick min by Activity: A , B Answer by quoting the chosen item's label.
Outgoing: A

###

# study.target: Estrogen receptor (Homo sapiens) (UniProt P03372)
# experiment.summary: Displacement of fluorescein-labeled estradiol from human recombinant ERalpha at 5 uM by fluorescence polarization assay
attribute.measured: Activity (%)

Observe how each entry below is paired with its result.
- compound.structure.string: "CCCC[C@@H]1C[C@H]1[C@@H](NC(=O)c1ccco1)c1ccc(C(F)(F)F)cc1"
  attribute.measured: "Activity"
  observed.result: 57
- compound.structure.string: "CCCCCC/C=C(\\C)[C@@H](NC(=O)c1cccnc1)c1ccc(-c2ccccc2)cc1"
  attribute.measured: "Activity"
  observed.result: 48
- compound.structure.string: "CCC/C=C(\\CCC)[C@@H](NC(=O)CC(C)C)c1ccccc1"
  attribute.measured: "Activity"
  observed.result: 110
- compound.structure.string: "C=C(CCCC)[C@@H](NC(=O)c1ccc(-c2ccccc2)cc1)c1ccccc1"
  attribute.measured: "Activity"
  observed.result: 46
- compound.structure.string: "CCCC[C@@H]1C[C@H]1[C@@H](NC(=O)c1ccccc1)c1ccc(C(F)(F)F)cc1"
  attribute.measured: "Activity"
  observed.result: 48

(P) CCCC[C@@H]1C[C@H]1[C@@H](NC(=O)c1cccs1)c1ccc(-c2ccccc2)cc1
(Q) CCC[C@@H]1C[C@@]1(CCC)[C@@H](NS(=O)(=O)c1cccc2cccnc12)c1ccc(-c2ccccc2)cc1
(R) CCC/C=C(\CCC)[C@@H](NS(=O)(=O)c1cccc2cccnc12)c1ccc(C(=O)OC)cc1
Incoming: Please produce an ascending ranking of these compounds based on Activity. Field: ranking. Enter the labels in the order requested.
Outgoing: P, R, Q

###

# study.target: UniProt:P03372
# experiment.summary: Displacement of fluorescein-labeled estradiol from human recombinant ERalpha at 5 uM by fluorescence polarization assay
attribute.measured: Activity (%)

(P) CCCC[C@@H]1C[C@H]1[C@@H](NC(=O)c1ccccc1)c1ccc(C(=O)OC)cc1
(Q) CCC/C=C(\CCC)[C@@H](NC(=O)c1ccc(-c2ccccc2)cc1)c1ccc(C(=O)OC)cc1
Incoming: Of P versus Q , which is the one with smaller reported Activity? Lab log: write the label of the selected item as the result.
Outgoing: Q

###

# study.target: Estrogen receptor beta (Homo sapiens)
# Sequence (Q92731 whole entry): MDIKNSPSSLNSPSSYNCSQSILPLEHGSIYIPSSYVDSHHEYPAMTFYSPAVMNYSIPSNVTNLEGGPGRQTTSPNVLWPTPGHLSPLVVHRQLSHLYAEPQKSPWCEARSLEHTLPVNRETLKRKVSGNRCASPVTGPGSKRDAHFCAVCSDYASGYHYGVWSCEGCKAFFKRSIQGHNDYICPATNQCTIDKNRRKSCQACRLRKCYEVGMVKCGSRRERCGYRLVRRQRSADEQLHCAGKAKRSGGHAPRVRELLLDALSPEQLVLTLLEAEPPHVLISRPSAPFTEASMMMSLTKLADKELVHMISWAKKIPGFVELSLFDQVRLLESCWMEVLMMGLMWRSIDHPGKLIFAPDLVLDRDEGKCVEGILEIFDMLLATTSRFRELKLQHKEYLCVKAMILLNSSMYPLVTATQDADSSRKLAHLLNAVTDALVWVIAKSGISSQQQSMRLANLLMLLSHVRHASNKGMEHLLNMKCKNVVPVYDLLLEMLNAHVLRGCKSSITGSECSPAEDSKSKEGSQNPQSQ
# experiment.summary: Displacement of fluorescein-labeled estradiol from human recombinant ERbeta at 0.2 uM by fluorescence polarization assay
attribute.measured: Activity (%)

The examples below pair each entry with its known result.
- compound: "CCCCCC/C=C(\\C)[C@@H](NC(=O)c1cccnc1)c1ccc(-c2ccccc2)cc1"
  study.target: "Estrogen receptor beta (Homo sapiens)"
  Activity / %: -8
- compound: "CCCC[C@@H]1C[C@H]1[C@@H](NC(=O)c1cccnc1)c1ccc(-c2ccccc2)cc1"
  study.target: "Estrogen receptor beta (Homo sapiens)"
  Activity / %: 2
- compound: "CCC[C@@H]1C[C@@]1(CCC)[C@@H](NC(=O)Cc1ccccc1)c1ccc(-c2ccccc2)cc1"
  study.target: "Estrogen receptor beta (Homo sapiens)"
  Activity / %: -8
- compound: "CCC/C=C(\\CCC)[C@@H](NC(=O)CC(C)C)c1ccccc1"
  study.target: "Estrogen receptor beta (Homo sapiens)"
  Activity / %: -4
- compound: "CCCC[C@@H]1C[C@H]1[C@@H](NC(=O)c1ccco1)c1ccccc1"
  study.target: "Estrogen receptor beta (Homo sapiens)"
  Activity / %: 8

(A) CCC/C=C(\CCC)[C@@H](NC(=O)c1ccc(C(F)(F)F)cc1)c1ccc(C(F)(F)F)cc1
(B) C=C(CCCC)[C@@H](NC(=O)c1ccc(C(F)(F)F)cc1)c1ccccc1
Incoming: Lab note: check whether A or B has the lower measured Activity. Field: selected label. Fill in the label of the entry you choose.
Outgoing: B
(B: -8%, A: 10%)

Reference source for all entries: ChEMBL document CHEMBL1137758
